Tested on: S. aureus SMITH (MP)
Assay: MIC, agar dilution
Assay type: cell-based
Conditions: Staphylococcus aureus, 18 h; S. aureus SMITH (MP); read-out: MIC
Counter-ions that a name gives are not always drawn.
QUANTITY MEASURED: MIC
In your response, put the unit directly after the numeric value.

CC1CCN(CC(=O)Nc2ccc3c(c2O)C(=O)C2=C(O)[C@]4(O)C(=O)C(C(N)=O)=C(O)[C@@H](N(C)C)C4CC2C3)CC1 (stereo partly shown) [A, dihydrochloride]
0.5 µg/mL
CN(C)CC(=O)Nc1ccc2c(c1O)C(=O)C1=C(O)[C@]3(O)C(=O)C(C(N)=O)=C(O)[C@@H](N(C)C)C3CC1C2 (stereo partly shown) [CC, dihydrochloride]
0.03 µg/mL
CCN(CC)CC(=O)Nc1ccc2c(c1O)C(=O)C1=C(O)[C@]3(O)C(=O)C(C(N)=O)=C(O)[C@@H](N(C)C)C3CC1C2 (stereo partly shown) [O, dihydrochloride]
0.25 µg/mL
CN(C)CC(=O)Nc1ccc2c(c1O)C(=O)C1=C(O)[C@]3(O)C(=O)C(C(=O)NCN4CCCC4)=C(O)[C@@H](N(C)C)C3CC1C2 (stereo partly shown)
0.25 µg/mL
CCNCC(=O)Nc1ccc2c(c1O)C(=O)C1=C(O)[C@]3(O)C(=O)C(C(N)=O)=C(O)[C@@H](N(C)C)C3CC1C2 (stereo partly shown) [E, dihydrochloride]
0.25 µg/mL
CCCNCC(=O)Nc1ccc2c(c1O)C(=O)C1=C(O)[C@]3(O)C(=O)C(C(N)=O)=C(O)[C@@H](N(C)C)C3CC1C2 (stereo partly shown) [C, dihydrochloride]
0.12 µg/mL

## Task # query: MIC of entry CN(C)[C@@H]1C(O)=C(C(N)=O)C(=O)[C@@]2(O)C(O)=C3C(=O)c4c(ccc(NC(=O)CNCc5ccccn5)c4O)CC3CC12 (stereo partly shown) [N, dihydrochloride]
## Result 4 µg/mL

* * *

Tested on: S. aureus UBMS 88-4
Test: MIC, agar dilution
Format: cell-based
Conditions: Staphylococcus aureus, UBMS884, 18 h
Counter-ions that a name gives are not always drawn.
Exercise: for every item that follows, state its recorded MIC.
Numbers only, in µg/mL.

Reference set (5 entries):
CN(C)[C@@H]1C(O)=C(C(N)=O)C(=O)[C@@]2(O)C(O)=C3C(=O)c4c(ccc(NC(=O)CNCc5cccs5)c4O)CC3CC12 (stereo partly shown) [L, dihydrochloride]
8
CN(C)CC(=O)Nc1ccc2c(c1O)C(=O)C1=C(O)[C@]3(O)C(=O)C(C(N)=O)=C(O)[C@@H](N(C)C)C3CC1C2 (stereo partly shown) [CC, dihydrochloride]
0.03
CNCC(=O)Nc1ccc2c(c1O)C(=O)C1=C(O)[C@]3(O)C(=O)C(C(N)=O)=C(O)[C@@H](N(C)C)C3CC1C2 (stereo partly shown) [F, dihydrochloride]
0.5
CC(C(=O)Nc1ccc2c(c1O)C(=O)C1=C(O)[C@]3(O)C(=O)C(C(N)=O)=C(O)[C@@H](N(C)C)C3CC1C2)N1CCCC1 (stereo partly shown)
0.5
CN(C)[C@@H]1C(O)=C(C(N)=O)C(=O)[C@@]2(O)C(O)=C3C(=O)c4c(ccc(NC(=O)CNCc5ccccn5)c4O)CC3CC12 (stereo partly shown) [N, dihydrochloride]
8

Field: MIC. Fill in for each record below.
1. CN(C)[C@@H]1C(O)=C(C(N)=O)C(=O)[C@@]2(O)C(O)=C3C(=O)c4c(ccc(NC(=O)CN5CCCCC5)c4O)CC3CC12 (stereo partly shown) [I, dihydrochloride]
2. CC1CCN(CC(=O)Nc2ccc3c(c2O)C(=O)C2=C(O)[C@]4(O)C(=O)C(C(N)=O)=C(O)[C@@H](N(C)C)C4CC2C3)CC1 (stereo partly shown) [A, dihydrochloride]
3. CC(C(=O)Nc1ccc2c(c1O)C(=O)C1=C(O)[C@]3(O)C(=O)C(C(N)=O)=C(O)[C@@H](N(C)C)C3CC1C2)N(C)C (stereo partly shown) [B, dihydrochloride]
4. CCCNCC(=O)Nc1ccc2c(c1O)C(=O)C1=C(O)[C@]3(O)C(=O)C(C(N)=O)=C(O)[C@@H](N(C)C)C3CC1C2 (stereo partly shown) [C, dihydrochloride]
5. CC(C)CNCC(=O)Nc1ccc2c(c1O)C(=O)C1=C(O)[C@]3(O)C(=O)C(C(N)=O)=C(O)[C@@H](N(C)C)C3CC1C2 (stereo partly shown) [M, dihydrochloride]

## Result
1: 0.5; 2: 0.5; 3: 0.25; 4: 0.25; 5: 0.5
